- Tested on: MDA-MB-435
- methodDescription: NCI tumour cell line growth inhibition, 48 h
Activity calls are given as the source filed them. No stated cut-off is given here; in the data, active = GI50 up to about 1.1 µM and inactive = higher.
Answer with one of the outcomes y for active, n for inactive

Answered cases to consult:
compound	qualitativeLabel
Cc1nnc2n1N=C(c1cc(F)c(Cl)cc1Cl)/C(=C/c1ccc3c(c1)OCO3)S2	n
CC1(C)CC2(C)CC1CC2NC(=O)CCN1CCOCC1 (configuration not stated)	n
CC(C)(C)c1cc(C2NCCO2)cc(C(C)(C)C)c1O (configuration not stated)	n

-- ask // param item: COc1cc(-c2cc(=O)c3cc4c(cc3[nH]2)OCO4)cc(OC)c1O ; yields the recorded call
-- reply n

-- ask Same read-out for CC(=O)c1cccc(Nc2c3ccccc3nc3occc23)c1 ?
-- reply y

-- ask Same read-out for Cc1cnc2sn(-c3ccc(Oc4ccccc4)cc3)c(=O)c2c1 ?
-- reply n

----------
GI50, HCT-15: measured values
API: value field is a number in µM; no unit string.

Take a look at these entries with their results.
compound	targetEntity	GI50 (µM)
Oc1ccc([I+]c2ccccc2)cc1O	HCT-15	27.7
CCOP(=O)(O)C(Nc1ccc(/N=N/c2ccccc2)cc1)c1cccc(C(Nc2ccc(/N=N/c3ccccc3)cc2)P(=O)(O)OCC)c1 (centres undefined)	HCT-15	24.8
Clc1ccccc1/C=C/c1nsc(/C=C/c2ccccc2Cl)n1	HCT-15	38

We now examine a further compound.
-- ask Enter reported GI50 observed with HCT-15 for O=c1[nH]c2ccc([N+](=O)[O-])cc2nc1/C(=N/Nc1ccccc1)C(O)c1ccco1 (centres undefined)
-- reply 18.2

----------
- Test system: DU-145
- methodDescription: NCI tumour cell line growth inhibition, 48 h
Activity calls are given as the source filed them. Rule as the data show it: active = GI50 up to about 1.1 µM and inactive = higher.
quantityName: GI50

molecule	GI50
N#CC12C(=O)N3C(=NC(c4ccccc4)NC3c3ccccc3)C1(C#N)C(c1ccccc1)NC1=C2CCCC1 (stereo not given)	> 100 µM (inactive)
Cc1ccc(S(=O)(=O)NC(=O)NC(Cc2c[nH]c3ccccc23)C(=O)O)cc1 (stereo not given)	> 100 µM (inactive)
N#Cc1cc(-c2nc3ccc(F)cc3s2)ccc1N	> 100 µM (inactive)

-- ask Give its GI50 value. Item: C=C1C(=O)OC2C1C(OC(=O)/C(C)=C/C)CC1(C)C(=O)CCC(=C)C21 (stereo not given)
-- reply 8.07 µM (inactive)

-- ask Same read-out for N#Cc1c(N2CCCC2)nsc1NCc1ccccc1 ?
-- reply > 100 µM (inactive)

----------
- Tested on: NCI-H522
- methodDescription: NCI tumour cell line growth inhibition, 48 h
The source made the active and inactive calls. No stated cut-off is given here; in the data, active = GI50 up to about 1.1 µM and inactive = higher.
quantityName: GI50

Take a look at these entries with their results.
compound	targetEntity	quantityName	measValue
Cc1cc(C)n(CN(CCCCO)Cn2nc(C)cc2C)n1	NCI-H522	GI50	23.8 µM (inactive)
CC1=NN(c2ccccc2)C(=O)C1=C1SCCCS1	NCI-H522	GI50	18.1 µM (inactive)
COc1ccc(S(=O)(=O)NC(C)C(=O)O)cc1 (stereo not drawn)	NCI-H522	GI50	> 100 µM (inactive)
O=C1N/C(=N/N=C/C(O)C(O)C(O)C(O)CO)N/C1=C\c1ccco1 (stereo not drawn)	NCI-H522	GI50	81.7 µM (inactive)
CC1CCOc2ccc(cc2)/C=N\c2ccc(cc2)CCc2ccc(cc2)/N=C\c2ccc(cc2)OCC1	NCI-H522	GI50	> 100 µM (inactive)

-- ask Give its GI50 value. Item: Clc1cc(OCc2nn3c(Cc4ccccc4)nnc3s2)ccc1OCc1nn2c(Cc3ccccc3)nnc2s1
-- reply 50.1 µM (inactive)

-- ask Same read-out for CC1=NC2(C(=O)O)C3(C(=O)O)N=C(C)OC3(C(F)(F)F)C2(C(F)(F)F)O1 (stereo not drawn) ?
-- reply > 100 µM (inactive)

-- ask Same read-out for Cc1nnc2n1N=C(c1ccccc1)/C(=C/c1ccc(-c3ccc(Cl)cc3)o1)S2 ?
-- reply 10.6 µM (inactive)

-- ask Same read-out for CC(=O)OCC1OC(NC(=S)Nn2c(-c3ccccc3)nc3ccccc3c2=O)C(OC(C)=O)C(OC(C)=O)C1OC(C)=O (stereo not drawn) ?
-- reply 45.5 µM (inactive)

-- ask Same read-out for COc1cc(C2C(Cl)C(=O)N2NC(=O)c2ccc(NC(C)=O)cc2)ccc1O (stereo not drawn) ?
-- reply > 100 µM (inactive)
